Would you mind telling me the reported viability at 28.5 h, 10 µM of each entry?
- ASSAY NOTES: in vitro
- STUDY CONDITIONS: human, hela cells, % viability
Give bare numbers, in %.

MOLECULE | viability at 28.5 h, 10 µM (%)
Cc1cc(C)nc(NC(=N)NCCc2c[nH]c3ccccc23)n1 | 70.2
CC(C(=O)NC1(C#N)CCCCC1)N1CCOC(c2nccs2)C1 (stereo not shown) | 80.9
Nc1ncc(-c2ccc(C(=O)N3CCOCC3)cc2)cc1C(=O)Nc1ccncc1 | 93.6
Cc1nn(C)c(C)c1NC(=O)CN1CCN(c2ccccc2Cl)CC1 | 82.6

Please give viability at 28.5 h, 10 µM, item by item, for the list that follows.
1. CC1(C)CC(NC(=O)CCc2cc(C(C)(C)C)c(O)c(C(C)(C)C)c2)CC(C)(C)N1
2. COc1cc(CN2CCN(C/C=C/c3ccccc3)CC2)cc(Br)c1O
3. CN(C)CC(=O)Nc1ccc(Br)cc1C(=O)c1ccccc1Cl [CBK264663F]
4. NC(=O)c1ccc(-c2nccnc2NCCc2ccncc2)cc1
5. COc1cncc(-c2ccc(N3CCN(CCN(C)C)CC3)nc2)c1
6. CCN(CC)C(=O)CC1SC(NCC2CCCCC2)=NC1=O (stereo not shown)
7. Cc1nc2ccc(NC(=O)CC3CCN(C(=O)CC4CCCCC4)CC3)cc2[nH]1
8. O=C(C1=C(O)C(=O)N(CCN2CCOCC2)C1c1ccccn1)c1cc2ccccc2o1 (stereo not shown)

1: 88.9; 2: 101; 3: 91.4; 4: 97.1; 5: 88.9; 6: 92.9; 7: 94.6; 8: 107

Each molecule below has a recorded value; state its viability at 28.5 h, 10 µM.
1. CC(C)(C)c1cc(N)c(C(N)=O)s1
2. O=c1[nH]cc(CN2CCCN(S(=O)(=O)c3ccc(C(F)(F)F)cc3Cl)CC2)c(=O)[nH]1
3. Cc1ccc(C)c(S(=O)(=O)NC(Cc2c[nH]c3ccccc23)C(=O)O)c1 (stereo not shown)
4. CCNc1nc(C#N)nc(Nc2ccccc2)n1
5. CN(c1ccc(C(=O)Nc2ccc(S(=O)(=O)N3CCOCC3)cc2)cc1)S(=O)(=O)c1ccccc1
6. CCOc1ncccc1NC(=O)c1cnc2c(cnn2CC(C)C)c1
7. COc1ccc(CN(CCCN2CCOCC2)C(=O)NCc2ccc(C#N)cc2)cc1OC

[91.3, 106, 105, 86.1, 96.7, 83.3, 89]

Please give viability at 28.5 h, 10 µM, item by item, for the list that follows.
1. NC1OC(COC(=O)c2ccccc2)C(OC(=O)c2ccccc2)C1OC(=O)c1ccccc1 (stereo not shown)
2. Cn1c(=O)n(C)c2cc(CNCc3ccccn3)ccc21
3. O=C(O)c1ccc(S(=O)(=O)c2ccc3c(c2)C(=O)N(NC(=O)c2ccc(O)cc2)C3=O)cc1
4. Cc1ccc(-c2c[nH]c([C@@H]3COCCN3Cc3c[nH]cn3)n2)cc1
5. Brc1csc(CN2CCN3CCCC3C2C2CCCCC2)c1 (stereo not shown)
6. CC(=O)Nc1cccc(CN(CCCO)C2CCc3ccccc32)c1 (stereo not shown)
7. O=C(NC1Cc2ccccc2C1)c1ccc2ncccc2c1

95.3
95.4
102
94.8
103
95
96.2

Below are some molecules; for each one, tell me its viability at 28.5 h, 10 µM.
1. O=C(O)c1cccc(NS(=O)(=O)c2cc3ccccc3o2)c1
2. O=C(N[C@H]1C[C@H]2C(=O)NC[C@@H](CCC(=O)N3CCOCC3)N2C1)c1cccs1
3. COc1ccc(N2CCN(CCNC(=O)Nc3ccc(Cl)cc3)CC2)cc1
4. COc1ccc(N(C)C(=O)c2ccc(Cn3nc(NC(=O)Cc4ccc5c(c4)OCO5)c4ccccc43)cc2)cc1
5. CNC(=O)C1(Cc2ccccc2-c2cccs2)CCN(C(=O)COc2ccccc2)CC1

1. 97.4
2. 92
3. 94.9
4. 103
5. 118

###

- ASSAY NOTES: in vitro
- STUDY CONDITIONS: human, hela cells, % viability
Kindly state viability at 28.5 h, 10 µM for each of the entries shown.
One number for each entry, in %.

Completed entries (count: 2):
MOLECULE | viability at 28.5 h, 10 µM (%)
CC(C)(CN)CN(Cc1ccccc1C(F)(F)F)C(=O)Nc1ccc(C(C)(C)C)cc1 [CBK026828C] | 92.4
CC(=O)Nc1ccc(-c2cccc(COC3CCN(C(=O)Cc4cc(F)cc(F)c4F)CC3)c2)cc1 | 89.2

# return viability at 28.5 h, 10 µM for each item in the list
1. O=C(NC(c1ccccc1)c1ccco1)C1CCN(CCN2C(=O)c3ccccc3C2=O)CC1 (stereo not drawn)
2. Cn1c(=O)c2c(ncn2CC(=O)Nc2cccnc2)n(C)c1=O

[120, 94.5]

Hi, could you look up viability at 28.5 h, 10 µM for each item in my list?
1. COC(=O)c1scc(NS(=O)(=O)c2cccc(C(F)(F)F)c2)c1C(=O)OC
2. CC1(C)CC(=O)Nc2ccccc2S1
3. N#Cc1cnn(-c2ccc(Cl)cc2Cl)c1N

94.9
98.2
89.2

Please give viability at 28.5 h, 10 µM, item by item, for the list that follows.
1. CCSc1nnc(-c2cccnc2)n1Cc1ccccc1
2. COc1ccc2nc(C)cc(N3CCOCC3)c2c1

1. 84.4
2. 91.2

###

Would you mind telling me the reported viability at 28.5 h, 30 µM of each entry?
- ASSAY NOTES: in vitro
- Design: Viability of infected HeLa host cells, resazurin conversion, bulk resorufin fluorescence relative to DMSO
- STUDY CONDITIONS: human, hela cells; bulk resorufin, mean of 3
Answers are plain numbers, in %.

MOLECULE | READOUT NAME | UNIT STRING | RECORDED VALUE
O=C1C(NCCO)=C(Nc2cccc(Cl)c2)C(=O)c2ccccc21 [c45e] | viability at 28.5 h, 30 µM | % | 102

Each of the following entries comes with a recorded value; kindly state viability at 28.5 h, 30 µM for each.
1. Fc1cccc(F)c1OCCOc1nc(N2CCNCC2)ccc1C(F)(F)F [c21e]
2. OCCNc1nc(Nc2ccc(Br)cc2)nc2ccccc12 [c17e]
3. O=[N+]([O-])c1ccc2[nH]c3c(c2c1)CCCC3NC1CCN(CCc2ccccc2)CC1 (stereo not shown) [c23e]
4. C1=C(CCNCCc2ccccc2)c2ccccc2C12CCCC2 [c51e]
5. O=C(NCCCn1ccnc1)c1cc(-c2cccc(Br)c2)nc2ccccc12 [c50e]
6. O=C(N/N=C\c1ccc([N+](=O)[O-])o1)c1nc(-c2ccccc2)cc(-c2ccccc2)n1
7. CC1=C(C)C(=NNC(N)=S)C(C)=C(C)C1=NNC(N)=S [c19e]

1: 0; 2: 71.2; 3: 6.18; 4: 96.5; 5: 84.8; 6: 107; 7: 114

Hi team, please reply with viability at 28.5 h, 30 µM for each item in this list.
1. Cc1cccc(OCC(C)NC(=O)NCCc2cnn(C)c2)c1 (stereo not shown) [c47e]
2. Fc1cc(Br)c(CNCc2ncc[nH]2)c(N2CCCCC2)c1F [c31e]
3. O=C(Nc1ccc(OC(F)(F)F)cc1)Nc1cc(-c2cccs2)n[nH]1 [c26e]
4. COc1ccc([C@@H]2CN(C)C[C@H]2NC(=O)Nc2ccc(Cl)c(Cl)c2)cc1OC [c39e]
5. c1c(C2CC2)[nH]c2nc(N3CCCC3)nc(N3CCCC3)c12

1. 118
2. 102
3. 96.4
4. 81.3
5. 81.1

Could I get viability at 28.5 h, 30 µM for every one of these entries?
1. O=C(c1ccc(-c2ccc(F)cc2)o1)N1C[C@H]2CC[C@](O)(c3ccc(F)cc3)[C@H]2C1
2. COCC(=O)N[C@H]1C[C@H]2C(=O)Nc3ccc(/C=C/c4ccccc4)cc3C(=O)N2C1 [c25e]
3. Cc1noc(-c2ccc3c(c2O)OCCO3)c1-c1ccc(Cl)cc1 [c20e]
4. COc1ccc(C2CC(=O)C=C(Nc3cc(Cl)ccc3O)C2)cc1 (stereo not shown) [c24e]

1. 116
2. 113
3. 75.6
4. 88.4

For every item in the list below, what is its measured viability at 28.5 h, 30 µM?
1. CN(C)c1ccc(Nc2nc(NCCO)c3ccccc3n2)cc1 [c27e]
2. COCCNc1nc2c(c(N3CCCCCC3)n1)CCNCC2 [c18e]
3. Cc1cccc(-c2ccc(CC3(C(N)=O)CCN(C(=O)CCc4ccccc4)CC3)cc2)c1 [c38e]
4. COc1ccc(CC(=O)N2CCCC(c3nc(C)c4c(n3)N(CC3CC3)CCC4)C2)cc1 (stereo not shown) [c52e]

110
103
114
102

Returns the measured viability at 28.5 h, 30 µM for the input molecule. Input: CCC1C(c2ccc(C)cc2)=CCC(C(=O)NCCCN(C)C)C1C (stereo not shown) [c30e]
55.5

meta.source: paper PMC12040169
